Tested on: HGGX39 (paediatric high-grade glioma line)
METHOD: area under dose-response curve of % growth inhibition (log2 RLU vs DMSO / staurosporine), 1e-11 to 1e-4 M (% x log10 M); higher = more growth inhibition
MEASURED_ENDPOINT: area under dose-response curve
Keep it simple and answer with nothing but the number.

>  <COMPOUND>
Nc1ncn([C@@H]2O[C@H](CO)[C@@H](O)[C@H]2O)c(=O)n1

>  <TARGET>
HGGX39

>  <area under dose-response curve>
17.6

$$$$
>  <COMPOUND>
CC1=C(/C=C/C(C)=C/C=C/C(C)=C/C(=O)O)C(C)(C)CCC1

>  <TARGET>
HGGX39

>  <area under dose-response curve>
42.5

$$$$
>  <COMPOUND>
N[C@H]1C[C@@H]1c1ccc(-c2cccc(O)c2)cc1

>  <TARGET>
HGGX39

>  <area under dose-response curve>
78.2

$$$$
>  <COMPOUND>
Cc1c(CN2CCC(Nc3ncnc4sc(CC(F)(F)F)cc34)CC2)ccc2c1cc(C#N)n2Cc1cn[nH]c1

>  <TARGET>
HGGX39

>  <area under dose-response curve>
84.8

$$$$
>  <COMPOUND>
C=C(c1ccc(C(=O)O)cc1)c1cc2c(cc1C)C(C)(C)CCC2(C)C

>  <TARGET>
HGGX39

>  <area under dose-response curve>
28.4

$$$$
>  <COMPOUND>
CNCCN1CCC(OCc2ccccc2)CC1

>  <TARGET>
HGGX39

>  <area under dose-response curve>
9.22

$$$$
>  <COMPOUND>
CCOC(=O)C1=C(COCCN)NC(C)=C(C(=O)OC)C1c1ccccc1Cl (stereo not drawn)

>  <TARGET>
HGGX39

>  <area under dose-response curve>
75.8

$$$$
>  <COMPOUND>
Fc1ccc(N2CCN(CCC3OCCc4ccccc43)CC2)cc1 (stereo not drawn)

>  <TARGET>
HGGX39

>  <area under dose-response curve>
18.1

$$$$

Reported area under dose-response curve for HGGX39, given `CCCCOc1ccc(CC(=O)NO)cc1` ?
27.2

Record: `[O-][n+]1ccccc1[S-].[O-][n+]1ccccc1[S-].[Zn+2]`
135

Try the compound `CC[C@@H](C(=O)[C@@H](C)[C@@H](O)[C@H](C)[C@@H]1O[C@@H]([C@@H](CC)C(=O)O)CC[C@@H]1C)[C@H]1O[C@]2(C=C[C@@H](O)[C@]3(CC[C@@](C)([C@H]4CC[C@](O)(CC)[C@H](C)O4)O3)O2)[C@H](C)C[C@@H]1C`
153

Now consider `COc1cc(C(C)=O)ccc1OCCCN1CCC(c2noc3cc(F)ccc23)CC1` .
10.3

Here is the next compound: `Cc1nn(C)c(COc2ccc(N3CCN(S(=O)(=O)N(C)C)CC3)cc2)c1-c1cccc2c(CCCOc3cccc4ccccc34)c(C(=O)O)n(CCN3CCOCC3)c12`
0
